experiment: NOVARTIS: Cytotoxicity against human hepatocellular carcinoma cell line (Huh7); type: toxicity, cell-based, Huh-7; conditions: Huh7 cells (hepatocellular carcinoma cell line)
For each record, write down the corresponding CC50.

Reported CC50 for CCOC(=O)c1nc2nc(C)cc(O)n2n1 was > 10 µM

Reported CC50 for COc1ccc(C2CC(=O)C3=C(C2)NC(C)=C(C(=O)OC(C)C)C3c2ccc(F)cc2)cc1OC (stereo unspecified) was 22.8 µM

Reported CC50 for CC(C)(C)CC(C)(C)Nc1c(-c2ccccc2OC(=O)c2ccccc2Cl)nc2ccccn12 was > 10 µM

Reported CC50 for CCc1cccc(NS(=O)(=O)c2ccc3[nH]c(=O)c(=O)[nH]c3c2)c1 was > 10 µM

Reported CC50 for CCCCCCOc1ccc(C(C)=NNC2=NCCN2)cc1[N+](=O)[O-] was 7.32 µM

Reported CC50 for CC1CCC2C(C)C(=O)OC3OC4(C)CCC1C32OO4 (stereo unspecified) was > 100 µM

###

assay: NOVARTIS: Cytotoxicity against human hepatocellular carcinoma cell line (Huh7); type: toxicity, cell-based, Huh-7; conditions: Huh7 cells (hepatocellular carcinoma cell line)
For each record, write down the corresponding CC50.

Reported CC50 for CCc1ccc(-n2c(C(CC)N(CCC(C)C)C(=O)Nc3ccc(Cl)c(Cl)c3)nc3ccccc3c2=O)cc1 (stereo unspecified) was > 10 µM

Reported CC50 for COc1cc2c(cc1OC)-c1cc3ccc(OC)c(OC)c3c[n+]1CC2 [PALMATINE CHLORIDE] was > 100 µM

Reported CC50 for CC1CC2(C)Oc3ccccc3CC2C(C)C1CNCCCN(C)C (stereo unspecified) was 4.79 µM

Reported CC50 for COc1cccc(OCC(=O)NN=C(C)CC(=O)NCc2ccco2)c1 was > 100 µM

Reported CC50 for CCc1c(C(C)S(=O)(=O)c2ccc(C)cc2)[nH]c(=O)n1-c1ccc(OC(F)(F)F)cc1 (stereo unspecified) was 5.75 µM

Reported CC50 for Nc1ccnc2cc(Cl)ccc12 was 72 µM

Reported CC50 for OC(CCNC1CCCCC1)COc1cccc2ccccc12 (stereo unspecified) was > 10 µM

Reported CC50 for O=S(=O)(ON=C1CCCc2sc(Cl)cc21)c1ccccc1 was > 100 µM

Reported CC50 for COc1ccc(-n2cnc3cc(NCc4nc5ccccc5n4C)ccc32)cc1 was 56.8 µM

Reported CC50 for COc1ccc(OC)c(NC(=O)COc2cc3ccccc3cc2C(=O)Nc2cc(OC)c(Cl)cc2OC)c1 was > 100 µM

Reported CC50 for COc1ccc2[nH]c(=O)c(CN(C(=S)Nc3ccccc3OC)C3CCCC3)cc2c1 was > 100 µM

Reported CC50 for Cc1nc(-c2cnccc2C(F)(F)F)sc1C(=O)NN was > 100 µM

Reported CC50 for CC(C)N(CC(=O)Nc1cc(C(C)(C)C)nn1-c1ccc(Cl)cc1)C(=O)c1ccc(C(C)(C)C)cc1 was > 100 µM

Reported CC50 for COc1ccc(C2CC(=O)C3=C(C2)NC(=O)CC3c2ccc([N+](=O)[O-])cc2)cc1OC (stereo unspecified) was > 100 µM

Reported CC50 for CCCCCCN(C(=O)COc1ccccc1)C(CC)c1nc2ccccc2c(=O)n1-c1cccc(Cl)c1 (stereo unspecified) was > 100 µM

Reported CC50 for CCOC(=O)c1ccc2c(c1)[C@@H]1C=CC[C@@H]1[C@H](c1ccc(OC)c([N+](=O)[O-])c1)N2 was > 100 µM

Reported CC50 for COc1ccc(C(=NO)C2CC2c2ccc(Cl)cc2)cc1 (stereo unspecified) was > 10 µM

Reported CC50 for Cn1nc(-c2ccccc2)c2c(C(=O)C(F)(F)F)cc(C(=O)C(F)(F)F)c-2c1-c1ccccc1 was > 100 µM

Reported CC50 for CCOC(=O)c1cnc2c3c(ccc2c1O)CCCC3 was > 100 µM

Reported CC50 for O=C(O)CCNc1ccccc1[N+](=O)[O-] was > 100 µM

Reported CC50 for COc1cccc(CN2CCC(O)(c3ccc4oc(C(=O)Nc5ccc(Cl)cc5)cc4c3)CC2)c1 was 24.7 µM

###

For each record, write down the corresponding CC50.
experiment: NOVARTIS: Cytotoxicity against human hepatocellular carcinoma cell line (Huh7); format: toxicity, cell-based, Huh-7; settings: Huh7 cells (hepatocellular carcinoma cell line)

Reported CC50 for Cc1ccc(N2C3c4ccccc4N(S(=O)(=O)c4ccc(C)cc4)C2c2ccccc2N3S(=O)(=O)c2ccc(C)cc2)cc1 was > 10 µM

Reported CC50 for CCN(CC)CCCN(Cc1cc2cc(OC)c(OC)cc2[nH]c1=O)C(=S)Nc1cccc(Cl)c1 was 18.9 µM

Reported CC50 for CCN(CC)Cc1cc(Nc2nc3ccccc3[nH]2)cc(CN(CC)CC)c1O was > 10 µM

Reported CC50 for CC(=O)N(C1=C(N2CCC(C)CC2)C(=O)c2ccccc2C1=O)c1cccc(F)c1 was 66.4 µM

Reported CC50 for O=C(Nc1ccc(Cl)cc1)Oc1ccccc1 [PHENYL 4-CHLOROPHENYLCARBAMATE] was 51.9 µM

Reported CC50 for O=C(Nc1ccc(-n2cnnn2)cc1)C1CCN(Cc2cc3ccccc3o2)CC1 was > 61.9 µM

Reported CC50 for O=C(Nc1ccc(-c2cn3cccnc3n2)cc1)c1ccccc1I was > 100 µM

Reported CC50 for O=C(NCc1ccccc1C(F)(F)F)C1CC(O)CN1C(=O)Nc1ccccc1 (stereo not given) was > 10 µM

Reported CC50 for O=C(NC(Cc1ccccc1)c1nnc(SCc2ccc(F)cc2)n1-c1ccc(Cl)cc1Cl)C1CCCCC1 (stereo not given) was 1.66 µM

Reported CC50 for CC(C)CC(=O)OC1C(N2CCCCC2)c2c(ccc(C=CC(=O)N3CCCCC3)c2O)OC1(C)C (stereo not given) was > 100 µM

Reported CC50 for c1ccc(CCCNc2ccnc3cc4ccccc4cc23)cc1 was 4.14 µM

Reported CC50 for Cc1nc(Oc2ccc3ccc(=O)oc3c2)c2c3c(sc2n1)CCCCC3 was > 10 µM

Reported CC50 for COc1ccccc1-n1nnnc1SCC(=O)Nc1cc([N+](=O)[O-])ccc1C was > 100 µM

Reported CC50 for CCC(C)(C)n1nnnc1C(c1cc2ccc(C)cc2[nH]c1=O)N1CCN(c2ccccc2)CC1 (stereo not given) was > 100 µM

Reported CC50 for O=C(Cc1c(F)cccc1Cl)Nc1cc(C(=O)N2CCN(Cc3ccccc3)CC2)ccc1N1CC2CC(C1)c1cccc(=O)n1C2 (stereo not given) was > 100 µM

Reported CC50 for COc1cccc(NC(=O)Cn2c(C)c(C(C)=O)c3ccccc32)c1 was > 100 µM

Reported CC50 for N=c1c2c(n(Cc3ccccc3)c3c1CCC3)CCCC2 was > 10 µM

Reported CC50 for COc1ccc(/C=C\c2nc(=O)c3ccccc3o2)cc1 was > 10 µM

Reported CC50 for CC(C)CNC(=O)c1cnc(NCCCn2ccnc2)nc1Nc1ccccc1 was > 10 µM

Reported CC50 for COc1cc(OC)cc(C(=O)N(C)CCCNc2ccnc3cc(Cl)ccc23)c1 was 4.7 µM

###

assay: NOVARTIS: Cytotoxicity against human hepatocellular carcinoma cell line (Huh7); assay type: toxicity, cell-based, Huh-7; conditions: Huh7 cells (hepatocellular carcinoma cell line)
For each record, write down the corresponding CC50.

Reported CC50 for CCOc1ccc(NC(=O)c2ccc(I)o2)cc1 was 69.6 µM

Reported CC50 for Cc1ccc(-c2nn(-c3ccccc3)c3[nH]c(=O)c(CNCc4ccccc4)cc23)cc1 was > 100 µM

Reported CC50 for O=C1/C(=C/c2ccccc2)Oc2c1ccc(O)c2CN1CCCCC1 was > 10 µM

Reported CC50 for COc1ccc(NC(=O)N(CCCNS(=O)(=O)c2ccc([N+](=O)[O-])cc2)c2ccc(Oc3ccccc3)cc2)cc1 was > 7.77 µM

Reported CC50 for CCCN1CCC(N2CCCC(c3[nH]ncc3-c3cccc(C(F)(F)F)c3)C2)CC1 (stereo not given) was > 10 µM

Reported CC50 for CCOc1ccccc1C1C(C#N)=C(SCC(=O)Nc2ccc(Cl)cc2)NC(C)=C1C(=O)Nc1ccccc1 (stereo not given) was > 100 µM

Reported CC50 for COc1cccc(NC(=O)Cn2c(C)c(C#N)c3ccccc32)c1 was > 100 µM

Reported CC50 for CCOC(=O)C1=C(C)NC2=C(C(=O)C(C(=O)OCC)C(c3ccc(OC)cc3)C2)C1c1ccc([N+](=O)[O-])cc1 (stereo not given) was > 100 µM

Reported CC50 for CC(=O)N1CCc2cc(NC3CCN(Cc4ccccc4)CC3)ccc21 was > 10 µM

Reported CC50 for Oc1c2c(nc3cc(-c4ccc(Cl)cc4)nn13)CCCC2 was > 100 µM

###

assay: NOVARTIS: Cytotoxicity against human hepatocellular carcinoma cell line (Huh7); type: toxicity, cell-based, Huh-7; conditions: Huh7 cells (hepatocellular carcinoma cell line)
experimental_readout: CC50 (µM)
Kindly provide the numeric value in µM only, without the unit symbol.

Reported CC50 for Cc1ccc2nc(Cl)c3cc(C(=O)NCCN4CCN(C)CC4)sc3c2c1 was 85.9

Reported CC50 for CC(CNC(=O)c1ccccc1)C(=O)OCC(=O)[C@@]12OC(C)(C)O[C@@H]1CC1C3CCC4=CC(=O)C=C[C@]4(C)[C@@]3(F)[C@@H](O)C[C@@]12C (some centres undefined) was 8.22

Reported CC50 for CC(=O)N1c2ccc(C)cc2C(C)(c2ccccc2)CC1(C)C (centres undefined) was 45.4

Reported CC50 for CN1CCN(c2ccc(Nc3c4ccccc4nc4ccccc34)cc2)CC1 was 6.76
